# Test system: HCC-2998 colon
# procedure.details: NCI tumour cell line growth inhibition, 48 h
endpoint: log10 TGI (log10 of the value in µM)

molecule	log10 TGI
CC[C@@H]1CN2CCC1C[C@@H]2C(O)c1ccnc2ccc(OCCN3CCN(CCOc4ccc5nccc(C(O)[C@@H]6C[C@@H]7CCN6C[C@@H]7CC)c5c4)CC3)cc12 (some centres not stated)	1.42
O=C(c1ccc(Cl)cc1Cl)N(Cc1cccnc1)C(=S)N(Cc1cccnc1)C(=O)c1ccc(Cl)cc1Cl	0.95
CC(NC1=CC(=O)c2ncccc2C1=O)C(O)c1ccccc1 (configuration not stated)	1.37
ClC(=Nc1cccc2ccccc12)N(c1ccccc1)c1ccccc1	1.74
COc1cc(N(CCC#N)CCC#N)ccc1/C(N=Nc1ccc(C)cc1)=N/NC(=O)c1cc(Br)ccc1O	1.70
CCCCCCCCCCCCCCCCCCNC(=O)[C@H]1CSC(c2ccc(OC)c(F)c2)N1 (some centres not stated)	0.85
O=C(CCCc1c[nH]c2ccccc12)NC1CC(=O)c2c(Br)sc(Br)c21 (configuration not stated)	0.61
CN(C)CCOc1ccc(I)cc1Cc1ccccc1	0.98

====

Listed compounds paired with reported TGI
# Tested on: SNB-75 CNS
# procedure.details: NCI tumour cell line growth inhibition, 48 h
endpoint: TGI (µM)

> print(dat)
                                   compound  result.operator  observed.value
1  Cc1cc(NC(=O)C2c3ccccc3C(=O)N(CC(C)C)C2c2cccs2)no1 (stereo not drawn)                >             100
2  Cc1ccc(S(=O)(=O)NC(CCC(=O)Nc2ccc(Cl)cc2)C(=O)Nc2ccc(Cl)cc2)cc1 (stereo not drawn)                =            2.23
3  Cc1cc(S(N)(=O)=O)c(SCc2nc(N)nc(N(C)C)n2)cc1Cl                >              10
4   CCN(CC)CCNC(=O)c1ccc([N+](=O)[O-])cc1OC                >             100
5  O=C1CC2CC=C[C@H]3c4cc5c(cc4C(=O)N1C23)OCO5 (stereo partly drawn)                >              50
6  CC(C)(C)c1cc(C(=O)/C=C/c2ccc(O)c(O)c2O)cc(C(C)(C)C)c1O                =            12.6
7  O=C1C=C[C@]2(C[C@@H](c3cccc(C(F)(F)F)c3)O[C@@H](c3cccc(C(F)(F)F)c3)O2)O1                =            16.1
8  COc1cc2cc(Oc3ccc(NC(=O)Nc4cccc(C(F)(F)F)c4)cc3)c(C)nc2cc1OCCN1CCCCC1                =            2.37

====

# Tested on: SK-MEL-28 melanoma
# procedure.details: NCI tumour cell line growth inhibition, 48 h
Collected TGI values appear next to each entry.
endpoint: TGI

> print(dat)
                               input.smiles  endpoint  observed.value
1                    N#Cc1ncn(-c2ccccc2)c1N       TGI        > 100 µM
2        Cc1nc(-c2ccccc2)c(C)n2c1nc1ccccc12       TGI        > 100 µM
3  O=C(Nc1n[nH]c2nc(-c3ccco3)c(Br)cc12)C1CC1       TGI         > 25 µM

====

# Tested on: UACC-62 melanoma
# procedure.details: NCI tumour cell line growth inhibition, 48 h
endpoint: log10 TGI (log10 of the value in µM)

> print(dat)
                                   compound      assay.system   endpoint  observed.value
1  O=C1/C(=C\c2ccc([N+](=O)[O-])cc2)Sc2scc(-c3ccc(O)c(O)c3)[n+]21  UACC-62 melanoma  log10 TGI            1.37
2  N#Cc1ccccc1NC(=O)C(=O)C(C(=O)c1ccccc1-c1ccccc1)C1OC(=O)c2ccccc21 (configuration not stated)  UACC-62 melanoma  log10 TGI            1.53
3  O=[N+]([O-])c1ccc(Sc2ncccn2)c([N+](=O)[O-])c1  UACC-62 melanoma  log10 TGI            1.21
4  C[C@H](CCC1=NCCN1)[C@H]1CC[C@H]2[C@@H]3[C@H](O)C[C@@H]4C[C@H](O)CC[C@]4(C)[C@H]3CC[C@]12C  UACC-62 melanoma  log10 TGI            1.37
5  CCOC(=O)C1C=C2O[C@@H]3OC4(CCCCC4)O[C@@H]3C2[C@H]2C(=O)C=CC(=O)[C@@]12C(=O)OC (some centres not stated)  UACC-62 melanoma  log10 TGI            1.49
6  O=C1/C(=C\c2ccc(Cl)cc2)CN(C(=S)Nc2ccccc2)C/C1=C\c1ccc(Cl)cc1  UACC-62 melanoma  log10 TGI            0.47
7  COc1cc2c3c(n(C)c(=O)c2cc1OC)-c1cc2c(cc1/C3=C\CCCCN)OCO2  UACC-62 melanoma  log10 TGI            1.58
8  O=[N+]([O-])c1ccc(N/N=C\c2cc(Cl)ccc2O)nc1  UACC-62 melanoma  log10 TGI            1.53
9  O=C(c1ccccc1)c1nn(-c2ccc(Cl)cc2)c2nc3nc(-c4ccccc4)cc(=O)n3nc12  UACC-62 melanoma  log10 TGI            1.62

====

# Test system: CAKI-1 renal
# procedure.details: NCI tumour cell line growth inhibition, 48 h
# TGI values compiled below
endpoint: TGI

> print(dat)
                                    compound  endpoint  observed.value
 1  CCCCCCC(=O)C/C(CCC(=O)N(Cc1ccccc1)Cc1ccccc1)=N\Nc1ccc([N+](=O)[O-])cc1[N+](=O)[O-]       TGI        > 100 µM
 2  COc1cc(C2CC(c3cccc(Nc4ccncc4)c3)=NN2c2cc(Cl)cc(Cl)c2)cc(OC)c1OC (stereo not drawn)       TGI         2.91 µM
 3  O=C(O)c1cccc(S(=O)(=O)NN2C(=O)CSC2c2ccccc2)c1 (stereo not drawn)       TGI        > 100 µM
 4    COc1cc(C(=O)O)c([N+](=O)[O-])c(OC)c1OC       TGI        > 100 µM
 5  CCCCCCCCCCCCCCCCCCNC(=O)[C@H]1CSC(c2ccc(OC)c(F)c2)N1 (stereo partly drawn)       TGI         16.9 µM
 6  COC(=O)C1Cc2ccc(C)cc2C1=O (stereo not drawn)       TGI        > 100 µM
 7   O=C(O)CN(c1ccc(Cl)cc1)S(=O)(=O)c1ccccc1       TGI        > 100 µM
 8  CC1(C)CC(=O)C2=C(C1)NC(SSC1=C(C#N)C(c3ccccc3)C3=C(CC(C)(C)CC3=O)N1)=C(C#N)C2c1ccccc1 (stereo not drawn)       TGI      49.4 µg/mL
 9  ClC(=Nc1cccc2ccccc12)N(c1ccccc1)c1ccccc1       TGI        > 100 µM
10  CC(C)(C)c1cc(C(=O)/C=C/c2ccc(O)c(O)c2O)cc(C(C)(C)C)c1O       TGI         15.6 µM
11  O=C1C2=C(c3ccccc31)C(c1cccc(Cl)c1)NC(=S)N2 (stereo not drawn)       TGI        > 100 µM
12  CSc1c(C(=O)Nc2ccc(C)cc2)c(N)nn1-c1ccccc1       TGI         49.9 µM
13  COC(=O)Nc1nc2ccc(C(=O)c3ccc[nH]3)cc2[nH]1       TGI        > 100 µM

====

# Tested on: SK-MEL-2 melanoma
# procedure.details: NCI tumour cell line growth inhibition, 48 h
endpoint: TGI

> print(dat)
                                    molecule       assay.system  endpoint  observed.value
 1  N#C/C(=C\c1c(-c2ccccc2)[nH]c2ccccc12)C(=O)c1ccc(Cl)cc1  SK-MEL-2 melanoma       TGI       > 39.3 µM
 2      CCOc1cc(/C=N\N(C)C)cc(/C=N\N(C)C)c1O  SK-MEL-2 melanoma       TGI           77 µM
 3  O=[N+]([O-])c1ccc(N/N=C\c2cc(Cl)ccc2O)nc1  SK-MEL-2 melanoma       TGI         29.4 µM
 4  COc1ccccc1/C=C1\Sc2scc(-c3cccc([N+](=O)[O-])c3)[n+]2C1=O  SK-MEL-2 melanoma       TGI         31.3 µM
 5  O=[N+]([O-])c1ccc(-c2ccc(/C=N/n3c(-c4ccc(Cl)cc4)n[nH]c3=S)o2)cc1  SK-MEL-2 melanoma       TGI        > 100 µM
 6  O=C(CCCN1CCC2(CC1)C(=O)NC(=O)N2c1ccccc1)c1ccc(F)cc1  SK-MEL-2 melanoma       TGI        > 100 µM
 7  COc1ccc(-c2oc3cc(O)c(OC)c(O)c3c(=O)c2OC2OC(CO)C(O)C(O)C2O)cc1 (configuration not stated)  SK-MEL-2 melanoma       TGI        > 100 µM
 8  N#Cc1cccc(C2ON=C(c3ccc([N+](=O)[O-])cc3)N2C23CC4CC(CC(C4)C2)C3)c1 (configuration not stated)  SK-MEL-2 melanoma       TGI        > 100 µM
 9  Cc1c(C(=O)CSc2nc3ccc([N+](=O)[O-])cc3[nH]2)c(=O)n(-c2ccccc2)n1C  SK-MEL-2 melanoma       TGI        > 100 µM
10  CN(C)CCN1C(=O)CC[C@@]2(C)C1=CC[C@@H]1[C@@H]2CC[C@@]2(C)[C@H]1CC[C@]2(C)O  SK-MEL-2 melanoma       TGI        > 100 µM
11  Cc1ccc(/C=C2\CN(C)CC3C(c4ccc(C)cc4)=C(C#N)C(=O)NC23)cc1 (configuration not stated)  SK-MEL-2 melanoma       TGI         > 50 µM
12  O=C1C2=C(c3ccccc31)C(c1cccc(Cl)c1)NC(=S)N2 (configuration not stated)  SK-MEL-2 melanoma       TGI        > 100 µM
13  COC(=O)C1Cc2c([nH]c3ccccc23)C(c2cccc(O)c2)N1 (configuration not stated)  SK-MEL-2 melanoma       TGI         83.3 µM
14  CSc1c(C(=O)Nc2ccc(C)cc2)c(N)nn1-c1ccccc1  SK-MEL-2 melanoma       TGI        > 100 µM
15  O=C1C(C(O)(C(F)(F)Cl)C(F)(F)Cl)CCC1C(O)(C(F)(F)Cl)C(F)(F)Cl (configuration not stated)  SK-MEL-2 melanoma       TGI         5.72 µM
16  COc1cc(C2C(Cl)C(=O)N2n2cnc3ccccc3c2=O)cc(OC)c1OC (configuration not stated)  SK-MEL-2 melanoma       TGI        > 100 µM
17  COC1C=C(Nc2cccc(Cl)c2)C(=O)C1 (configuration not stated)  SK-MEL-2 melanoma       TGI        > 100 µM
18  COc1c(Cl)ccc(Cl)c1C(=O)NNC(=O)c1c(Cl)c(Cl)c(Cl)c(Cl)c1-c1nc2ccc(C(=O)c3ccccc3)cc2[nH]1  SK-MEL-2 melanoma       TGI        > 100 µM
19  Nc1nc(Cl)c(C=O)c(NCC2(CO)CC(CCc3ccccc3)C2)n1 (configuration not stated)  SK-MEL-2 melanoma       TGI         19.2 µM
20  CC1=C(C(=O)Nc2ccccc2)C(c2ccc3c(c2)OCO3)C(C(=O)Nc2ccccc2)=C(C)N1  SK-MEL-2 melanoma       TGI         74.5 µM
21  C1=CN2C[n+]3cccc(OCc4ccccc4)c3N=C2C(OCc2ccccc2)=C1  SK-MEL-2 melanoma       TGI         33.3 µM
22  O=C(O)CCC(NC(=O)c1ccc(Nc2nc3ccccc3nc2C(=O)O)cc1)C(=O)O (configuration not stated)  SK-MEL-2 melanoma       TGI        > 100 µM
